From: the supplement of paper PMC10307832

Would you kindly list relative viability for each of these molecules?
# System: NCI-H1944
# procedure_summary: relative viability (nuclei count vs DMSO), 5 days (fraction); higher = more cells survive
# assay_setup: first compound 0.4 µM
Kindly provide the number alone.

## Input What value of relative viability has been recorded for this entry: Cc1sc2c(c1C)C(c1ccc(Cl)cc1)=N[C@@H](CC(=O)OC(C)(C)C)c1nnc(C)n1-2 [JQ1] + Nc1ncn([C@H]2C[C@H](O)[C@@H](CO)O2)c(=O)n1 [Decitabine] (partner 2 µM)
## Output 0.409

## Input Need relative viability of Cc1sc2c(c1C)C(c1ccc(Cl)cc1)=N[C@@H](CC(=O)OC(C)(C)C)c1nnc(C)n1-2 [JQ1] + CS(=O)(=O)CCNCc1ccc(-c2ccc3ncnc(Nc4ccc(OCc5cccc(F)c5)c(Cl)c4)c3c2)o1 [Lapatinib] (partner 2 µM) , thanks.
## Output 0.614

## Input What does the data say about its relative viability? Entry: Cc1sc2c(c1C)C(c1ccc(Cl)cc1)=N[C@@H](CC(=O)OC(C)(C)C)c1nnc(C)n1-2 [JQ1] + COc1cccc2cc(-c3nc([C@H]4CC[C@H](C(=O)O)CC4)n4ncnc(N)c34)[nH]c12 [OSI-027] (partner 0.5 µM)
## Output 0.375

## Input Form field: reported relative viability of Cc1sc2c(c1C)C(c1ccc(Cl)cc1)=N[C@@H](CC(=O)OC(C)(C)C)c1nnc(C)n1-2 [JQ1] + Cc1nc(Nc2ncc(C(=O)Nc3c(C)cccc3Cl)s2)cc(N2CCN(CCO)CC2)n1 [Dasatinib] (partner 0.075 µM)
## Output 0.204

## Input Reported relative viability, molecule Cc1sc2c(c1C)C(c1ccc(Cl)cc1)=N[C@@H](CC(=O)OC(C)(C)C)c1nnc(C)n1-2 [JQ1] + NC(=O)Nc1cc(-c2cccc(F)c2)sc1C(=O)N[C@H]1CCCNC1 [AZD7762] (partner 0.2 µM) : ____
## Output 0.434

###

# System: LK-2
# procedure_summary: relative viability (nuclei count vs DMSO), 5 days (fraction); higher = more cells survive
# assay_setup: first compound 0.04 µM
endpoint_label: relative viability
Write the number on its own, no unit after it.

## Input Endpoint output: relative viability of Cc1sc2c(c1C)C(c1ccc(Cl)cc1)=N[C@@H](CC(=O)OC(C)(C)C)c1nnc(C)n1-2 [JQ1] + O=C(CCCCCCC(=O)Nc1ccccc1)NO [Vorinostat] (partner 1 µM) . Value?
## Output 0.301

## Input What value of measured relative viability is listed for Cc1sc2c(c1C)C(c1ccc(Cl)cc1)=N[C@@H](CC(=O)OC(C)(C)C)c1nnc(C)n1-2 [JQ1] + COc1cc2c(Oc3ccc(NC(=O)C4(C(=O)Nc5ccc(F)cc5)CC4)cc3F)ccnc2cc1OCCCN1CCOCC1 [Foretinib] (partner 0.25 µM) ?
## Output 1.21

## Input What value of relative viability has been recorded for this entry: Cc1sc2c(c1C)C(c1ccc(Cl)cc1)=N[C@@H](CC(=O)OC(C)(C)C)c1nnc(C)n1-2 [JQ1] + CS(=O)(=O)CCNCc1ccc(-c2ccc3ncnc(Nc4ccc(OCc5cccc(F)c5)c(Cl)c4)c3c2)o1 [Lapatinib] (partner 2 µM)
## Output 0.886

## Input Which relative viability is listed for Cc1sc2c(c1C)C(c1ccc(Cl)cc1)=N[C@@H](CC(=O)OC(C)(C)C)c1nnc(C)n1-2 [JQ1] + Cc1nc(NC(=O)N2CCC[C@H]2C(N)=O)sc1-c1ccnc(C(C)(C)C(F)(F)F)c1 [Alpelisib] (partner 2 µM) ?
## Output 1.05
